Every entry's value here was drawn from patent US9204653B2.

Reported pest or weed control at 75 ppm by item:
# System: Venturia inaequalis; Bayer Code VENTIN
# Method Notes: Apple scab
# Assay type: in vivo
# Setup Conditions: 24 h, % disease control rating, one day protectant, 75 ppm, read-out: VENTIN 1 DP 75 ppm

Examples with answers:
Compound	Experimental Target	Recorded Metric	Observed Value
Nc1nc(OC(Cc2ccccc2)c2ccc(F)cc2)ncc1F (centres unmarked) [Compound 61]	Venturia inaequalis; Bayer Code VENTIN	pest or weed control at 75 ppm	51 to 75%
Nc1nc(OCc2ccc(F)cc2)ncc1F [Compound 1]	Venturia inaequalis; Bayer Code VENTIN	pest or weed control at 75 ppm	76 to 100%
Fc1ccccc1CNc1nc(OCC(F)(F)F)ncc1F [Compound 894]	Venturia inaequalis; Bayer Code VENTIN	pest or weed control at 75 ppm	26 to 50%
Nc1nc(OCc2ccc(Cl)c([N+](=O)[O-])c2)ncc1F [Compound 707]	Venturia inaequalis; Bayer Code VENTIN	pest or weed control at 75 ppm	51 to 75%

Turning now to a further record.
Recorded pest or weed control at 75 ppm for CCCNC(=O)Nc1nc(OCc2cccc(C#N)c2)ncc1F [Compound 163] , please? 26 to 50%

====

# System: Mycosphaerella graminicola; Anamorph: Septoria tritici; Bayer Code SEPTTR
# Method Notes: Leaf blotch of wheat, foliar fungicide treatment, one day protectant (1DP) or three day curative (3DC)
# Assay type: in vivo, Septoria tritici on wheat plants (variety Yuma)
# Setup Conditions: Zymoseptoria tritici, 24 h, one day protectant (1DP), 25 ppm, rating of percent disease control, read-out: SETTTR 1DP 25 ppm
Reported pest or weed control at 25 ppm by item:

Examples with answers:
Compound	pest or weed control at 25 ppm
CN1CCCC/C1=N\c1nc(OCc2cccc(F)c2)ncc1F	76 to 100%
O=C(Nc1nc(OCc2cccs2)ncc1F)c1ccccc1	51 to 75%
COCCOC(=O)Nc1nc(OCc2ccc(C)cc2)ncc1F	76 to 100%

Recorded pest or weed control at 25 ppm for COc1cccc(COc2ncc(F)c(NC(=O)NCc3ccccc3F)n2)c1 with Mycosphaerella graminicola; Anamorph: Septoria tritici; Bayer Code SEPTTR, please? 0 to 25%

And for COc1cccc(COc2ncc(F)c(N3CCCCC3)n2)c1 ? 0 to 25%

And for CC(C)/C(=N\c1nc(OCc2ccc(F)cc2)ncc1F)N(C)C ? 76 to 100%

And for Nc1nc(OCc2ccc(F)c(F)c2)ncc1F ? 76 to 100%

====

# Tested on: Mycosphaerella graminicola; Anamorph: Septoria tritici; Bayer Code SEPTTR
# Method Notes: Leaf blotch of wheat, foliar fungicide treatment, one day protectant (1DP) or three day curative (3DC)
# Assay type: in vivo, Septoria tritici on wheat plants (variety Yuma)
# Setup Conditions: Zymoseptoria tritici, 24 h, one day protectant (1DP), 25 ppm, rating of percent disease control, read-out: SETTTR 1DP 25 ppm
Reported pest or weed control at 25 ppm by item:

Compound	pest or weed control at 25 ppm
CC(Oc1ncc(F)c(N)n1)c1cc(Cl)c(Cl)cc1Cl (centres unmarked)	0 to 25%

Recorded pest or weed control at 25 ppm for Nc1nc(OCc2c(F)cc(F)cc2F)ncc1F with Mycosphaerella graminicola; Anamorph: Septoria tritici; Bayer Code SEPTTR, please? 76 to 100%

And for Nc1nc(OCc2ccsc2)ncc1F ? 76 to 100%

And for CN(C)/C=N/c1nc(OC(=O)Oc2ccc(Cl)cc2)ncc1F ? 51 to 75%

And for CCC(Oc1ncc(F)c(N)n1)c1ccc(F)cc1 (centres unmarked) ? 76 to 100%

And for CN1CCCC/C1=N\c1nc(OCc2cccc(C#N)c2)ncc1F ? 51 to 75%
